- System: CCRIS mutagenicity, Ames/micronucleus/aberration tests
- test_details: CCRIS mutagenicity studies
- experimental_conditions: Test System: AMES SALMONELLA TYPHIMURIUM; Strain/Indicator: TA102; Metabolic Activation: NONE; Method: STANDARD PLATE
- From the text: The CCRIS database contains chemical records with carcinogenicity, mutagenicity, tumor promotion, and tumor inhibition test results. It was developed by the National Cancer Institute (NCI). Data are derived from studies cited in primary journals, current awareness tools, NCI reports, and other sources. Test results have been reviewed by experts in carcinogenesis and mutagenesis. CCRIS provides historical information from the years 1985 - 2011. It is no longer updated. […]
Active and inactive are the calls of the source. The rule behind the calls is not given here.
Outcomes: true (1) for active, false (0) for inactive

[
  {
    "molecule": "CN1CCCC1=O",
    "assigned_label": "false (0)"
  },
  {
    "molecule": "COc1cc(-c2oc3cc(O)cc(O)c3c(=O)c2O)ccc1O",
    "assigned_label": "false (0)"
  },
  {
    "molecule": "O=c1c(O)c(-c2ccc(O)cc2)oc2cc(O)cc(O)c12",
    "assigned_label": "false (0)"
  },
  {
    "molecule": "Cc1nc2c(c3[nH]c4ccccc4c13)C(=O)C=CC2=O",
    "assigned_label": "false (0)"
  },
  {
    "molecule": "O=C([O-])/C=C/C(=O)[O-].[Fe+2]",
    "assigned_label": "false (0)"
  },
  {
    "molecule": "CN(C)CCc1cc(O)ccc1CNc1ccccn1",
    "assigned_label": "false (0)"
  },
  {
    "molecule": "Cc1cc(Cl)ccc1OCCCC(=O)O",
    "assigned_label": "false (0)"
  },
  {
    "molecule": "O=S1OC[C@@H]2[C@H](CO1)[C@]1(Cl)C(Cl)=C(Cl)[C@@]2(Cl)C1(Cl)Cl (some centres not stated)",
    "assigned_label": "false (0)"
  },
  {
    "molecule": "c1ccc(CSSCc2ccccc2)cc1",
    "assigned_label": "true (1)"
  },
  {
    "molecule": "CN(C)c1ccc(C(c2ccccc2)c2ccc(N(C)C)cc2)cc1",
    "assigned_label": "false (0)"
  },
  {
    "molecule": "CC1(C)C(=O)[C@]2(C)CC[C@H]1C2",
    "assigned_label": "false (0)"
  },
  {
    "molecule": "CNCCN(Cc1ccc(OC)cc1)c1ccccn1",
    "assigned_label": "false (0)"
  }
]

###

- System: CCRIS mutagenicity, Ames/micronucleus/aberration tests
- test_details: CCRIS mutagenicity studies
- experimental_conditions: Test System: AMES SALMONELLA TYPHIMURIUM; Strain/Indicator: TA98; Metabolic Activation: RAT, LIVER, S-9, AROCLOR 1254; Method: STANDARD PLATE
- Text: The CCRIS database contains chemical records with carcinogenicity, mutagenicity, tumor promotion, and tumor inhibition test results. It was developed by the National Cancer Institute (NCI). Data are derived from studies cited in primary journals, current awareness tools, NCI reports, and other sources. Test results have been reviewed by experts in carcinogenesis and mutagenesis. CCRIS provides historical information from the years 1985 - 2011. It is no longer updated. […]
Active and inactive are the calls of the source. The rule behind the calls is not given here.
Outcomes: Y for active, N for inactive

[
  {
    "molecule": "CN(C)CCc1cc(O)ccc1CNc1ccccn1",
    "assigned_label": "N"
  },
  {
    "molecule": "CC(=O)N(Nc1ccc2c(c1)Cc1ccccc1-2)c1ccc2c(c1)Cc1ccccc1-2",
    "assigned_label": "Y"
  },
  {
    "molecule": "O=C1c2ccccc2-c2ccc3ccccc3c21",
    "assigned_label": "N"
  },
  {
    "molecule": "C=C(C)C(=O)OCC(CC)(COC(=O)C(=C)C)COC(=O)C(=C)C",
    "assigned_label": "N"
  },
  {
    "molecule": "C#C[C@]1(O)CC[C@H]2[C@@H]3CCc4cc(O)ccc4[C@H]3CC[C@@]21C",
    "assigned_label": "N"
  },
  {
    "molecule": "Cc1cnc2cc(C)c3c(nc(N)n3C)c2n1",
    "assigned_label": "Y"
  },
  {
    "molecule": "Cc1nc2ccc3c(nc(N)n3C)c2nc1C",
    "assigned_label": "Y"
  },
  {
    "molecule": "Cc1nc2c(c3[nH]c4ccccc4c13)C(=O)C=CC2=O",
    "assigned_label": "Y"
  },
  {
    "molecule": "O=[N+]([O-])c1cc(C(F)(F)F)cc([N+](=O)[O-])c1Cl",
    "assigned_label": "N"
  },
  {
    "molecule": "N#CSCSC#N",
    "assigned_label": "N"
  },
  {
    "molecule": "CCCC(O)C(CC)CO (configuration not stated)",
    "assigned_label": "N"
  },
  {
    "molecule": "COC(=O)C(C)(C)Oc1ccc(-c2ccc(Cl)cc2)cc1",
    "assigned_label": "N"
  },
  {
    "molecule": "Cc1ccccc1Cl",
    "assigned_label": "N"
  },
  {
    "molecule": "CC(C)(C)NCC(O)COc1cccc2c1CCCC2=O (configuration not stated)",
    "assigned_label": "N"
  },
  {
    "molecule": "O=C(O)c1ccccn1",
    "assigned_label": "N"
  },
  {
    "molecule": "Nc1ncnc2c1ncn2C(c1ccccc1)c1ccccc1",
    "assigned_label": "Y"
  },
  {
    "molecule": "CC(C)(C)N(CCO)CCO",
    "assigned_label": "N"
  },
  {
    "molecule": "CC(Oc1ccc(Cl)cc1Cl)C(=O)O (configuration not stated)",
    "assigned_label": "N"
  },
  {
    "molecule": "CC(C)c1cc(N)cc([N+](=O)[O-])c1N",
    "assigned_label": "N"
  },
  {
    "molecule": "Cc1cnc2c(cc(C)c3c2nc(N)n3C)n1",
    "assigned_label": "Y"
  },
  {
    "molecule": "CSc1ccc(Cl)cc1",
    "assigned_label": "N"
  },
  {
    "molecule": "CCOc1ccc(NC(C)=O)cc1N",
    "assigned_label": "Y"
  },
  {
    "molecule": "c1ccc(-c2ccc(-c3ccccc3)cc2)cc1",
    "assigned_label": "N"
  },
  {
    "molecule": "Cc1cc2c(C)c3ccccc3c(C)c2cc1C",
    "assigned_label": "Y"
  },
  {
    "molecule": "CC(C)C[C@H]1C(=O)N2CCC[C@H]2[C@]2(O)O[C@](NC(=O)[C@@H]3C[C@@H]4c5cccc6[nH]cc(c56)C[C@H]4N(C)C3)(C(C)C)C(=O)N12",
    "assigned_label": "N"
  },
  {
    "molecule": "CC1=C[C@@H]2c3cccc4[nH]cc(c34)C[C@H]2N(C)C1",
    "assigned_label": "Y"
  },
  {
    "molecule": "Cc1c(C)c(N)c(C)c(C)c1N",
    "assigned_label": "N"
  }
]
